Provenance of the data: paper PMC12644675

test description: Travelling wave ion mobility: drift times and CCS of homo-trimer 5+ ions
Assay type: physicochemical
condition info: drift time peak of 5+ trimer ion, TWIM, nitrogen; unit assumed

- substance: "H-tyr^2IPEAPRDala^10QAYVRKphe^17GEWVLLSTFL-NH2 [foldon 4, T4Ff variant without Gly1, D-Tyr at position 2]"
  FWHM, ms: 1.6
- substance: "H-Nal^2IPEAPRDala^10QAYVRKphe^17GEWVLLSTFL-NH2 [foldon 5, T4Ff variant without Gly1, Nal at position 2]"
  FWHM, ms: 0.8
- substance: "H-Gly^1Tyr^2IPEAPRDala^10QAYVRKphe^17GEWVLLSTFL-NH2 [foldon 1, T4Ff variant with D-Ala10, D-Phe17 and C-terminal carboxamide]"
  FWHM, ms: 1.5
- substance: "H-Gly^1Tyr^2IPEAPRDGly^10QAYVRKAsp^17GEWVLLSTFL-OH [foldon 0, original T4 Fibritin foldon mini-protein of 27 amino acids, purchased, forms homo-trimers, reference compound]"
  FWHM, ms: 1.9
- substance: "H-Gly^1tyr^2IPEAPRDala^10QAYVRKphe^17GEWVLLSTFL-NH2 [foldon 2]"
  FWHM, ms: 1.5
- substance: "H-Dip^2IPEAPRDala^10QAYVRKphe^17GEWVLLSTFL-NH2 [foldon 6, T4Ff variant without Gly1, Dip at position 2]"
  FWHM, ms: 1.5
- substance: "H-Tyr^2IPEAPRDala^10QAYVRKphe^17GEWVLLSTFL-NH2 [foldon 3]"
  FWHM, ms: 1.2

* * *

# key: entry, value: dt (mean)
test description: Travelling wave ion mobility: drift times and CCS of homo-trimer 5+ ions
Format: physicochemical
condition info: TWIM, nitrogen, centroided 5+ trimer ion signal; 50 mM ammonium acetate pH 5.5, c = 0.1 mg/ml; mean of two independent measurements

- substance: "H-Gly^1Tyr^2IPEAPRDGly^10QAYVRKAsp^17GEWVLLSTFL-OH [foldon 0, original T4 Fibritin foldon mini-protein of 27 amino acids, purchased, forms homo-trimers, reference compound]"
  dt (mean) / ms: 10.8
- substance: "H-Dip^2IPEAPRDala^10QAYVRKphe^17GEWVLLSTFL-NH2 [foldon 6, T4Ff variant without Gly1, Dip at position 2]"
  dt (mean) / ms: 11.3
- substance: "H-Tyr^2IPEAPRDala^10QAYVRKphe^17GEWVLLSTFL-NH2 [foldon 3]"
  dt (mean) / ms: 10.9
- substance: "H-Nal^2IPEAPRDala^10QAYVRKphe^17GEWVLLSTFL-NH2 [foldon 5, T4Ff variant without Gly1, Nal at position 2]"
  dt (mean) / ms: 11.0

* * *

test description: Travelling wave ion mobility: drift times and CCS of homo-trimer 5+ ions
Assay type: physicochemical
condition info: TWIM, nitrogen, 5+ trimer ion; 50 mM ammonium acetate pH 5.5, c = 0.1 mg/ml; mean of two independent measurements
# key: entry, value: TWCCSN2 exp. (mean)
outcome measure: TWCCSN2 exp. (mean) (Å^2)

- substance: "H-Dip^2IPEAPRDala^10QAYVRKphe^17GEWVLLSTFL-NH2 [foldon 6, T4Ff variant without Gly1, Dip at position 2]"
  value measured: 1177
- substance: "H-Gly^1Tyr^2IPEAPRDala^10QAYVRKphe^17GEWVLLSTFL-NH2 [foldon 1, T4Ff variant with D-Ala10, D-Phe17 and C-terminal carboxamide]"
  value measured: 1172
- substance: "H-Gly^1Tyr^2IPEAPRDGly^10QAYVRKAsp^17GEWVLLSTFL-OH [foldon 0, original T4 Fibritin foldon mini-protein of 27 amino acids, purchased, forms homo-trimers, reference compound]"
  value measured: 1160

* * *

# key: entry, value: TWCCSN2 exp. (mean)
test description: Travelling wave ion mobility: drift times and CCS of homo-trimer 5+ ions
Format: physicochemical
condition info: TWIM, nitrogen, 5+ trimer ion; 50 mM ammonium acetate pH 5.5, c = 0.1 mg/ml; mean of two independent measurements
outcome measure: TWCCSN2 exp. (mean) (Å^2)

- substance: "H-tyr^2IPEAPRDala^10QAYVRKphe^17GEWVLLSTFL-NH2 [foldon 4, T4Ff variant without Gly1, D-Tyr at position 2]"
  outcome measure: "TWCCSN2 exp. (mean)"
  value measured: 1164
- substance: "H-Nal^2IPEAPRDala^10QAYVRKphe^17GEWVLLSTFL-NH2 [foldon 5, T4Ff variant without Gly1, Nal at position 2]"
  outcome measure: "TWCCSN2 exp. (mean)"
  value measured: 1169
- substance: "H-Tyr^2IPEAPRDala^10QAYVRKphe^17GEWVLLSTFL-NH2 [foldon 3]"
  outcome measure: "TWCCSN2 exp. (mean)"
  value measured: 1164
- substance: "H-Gly^1tyr^2IPEAPRDala^10QAYVRKphe^17GEWVLLSTFL-NH2 [foldon 2]"
  outcome measure: "TWCCSN2 exp. (mean)"
  value measured: 1169

* * *

test description: Travelling wave ion mobility: drift times and CCS of homo-trimer 5+ ions
Format: physicochemical
condition info: TWIM, nitrogen, centroided 5+ trimer ion signal; 50 mM ammonium acetate pH 5.5, c = 0.1 mg/ml; mean of two independent measurements
# key: entry, value: dt (mean)

- substance: "H-tyr^2IPEAPRDala^10QAYVRKphe^17GEWVLLSTFL-NH2 [foldon 4, T4Ff variant without Gly1, D-Tyr at position 2]"
  dt (mean) [ms]: 10.9
- substance: "H-Gly^1tyr^2IPEAPRDala^10QAYVRKphe^17GEWVLLSTFL-NH2 [foldon 2]"
  dt (mean) [ms]: 11.0
- substance: "H-Gly^1Tyr^2IPEAPRDala^10QAYVRKphe^17GEWVLLSTFL-NH2 [foldon 1, T4Ff variant with D-Ala10, D-Phe17 and C-terminal carboxamide]"
  dt (mean) [ms]: 11.1
